# System: NCI/ADR-RES ovarian
# experiment.notes: NCI-60 one-dose screen, 48 h
# reported.conditions: 10 µM unless noted
The panel holds about 83,000 compounds, 20% with a hit somewhere; the sample as a whole holds those more often. Active and inactive are the calls of the source. The calls were made as follows: active = growth percent below 10; inactive = the rest.
Pick from true (active), false (inactive) when you respond.

| compound.structure | test.target | label.value |
| --- | --- | --- |
| COc1ccc(NC(=O)CSc2nnc(-c3ccc4nc(-c5ccccc5)[nH]c4c3)o2)cc1 | NCI/ADR-RES ovarian | false |
| COc1ccc(/C(N)=N/C(N)=N/c2nc3ccccc3s2)cc1 | NCI/ADR-RES ovarian | false |
| CS(=O)(=O)Nc1cc(-c2ccc3ncc(C#N)c(NCc4cccc(F)c4)c3c2)cnc1Cl | NCI/ADR-RES ovarian | false |
| COc1ccc(Cn2cc3c(c2-c2cc(OC)c(OC)c(OC)c2)CCc2c(CN4CCCC4)noc2-3)cc1 | NCI/ADR-RES ovarian | true |

Moving on to another compound below.
Recorded call for C#Cc1ccc(C(=O)NCc2ccc(/C=C/C(=O)c3nccn3C)cc2)cc1 ? true
